- Test system: red blood cells (RBCs)
- protocolNotes: Haemolytic activity
- Format: cell-based
- statedConditions: 30 min, pH 7.4
- Method: The newly-synthesized molecules (3a–i) were also examined for their hemolytic activity, following the method reported by Powell and co-workers. The standard drug Triton X-100 was employed as a reference in these measurements. […] The hemolytic activity of newly synthesized thiophene derivatives was examined by following the previously-reported method. […] The erythrocytes present in cells were measured and diluted with PBS buffer. […]
measuredEndpoint: % Lysis of RBC

[[record]]
mol = "CCCCCCc1cc(-c2ccc(I)cc2)sc1-c1ccc(I)cc1"
result = "3.62 ± 0.024%"

[[record]]
mol = "CCCCCCc1cc(-c2ccc(OC)cc2)sc1-c1ccc(OC)cc1"
result = "5.80 ± 0.045%"

[[record]]
mol = "CCCCCCc1cc(-c2ccc(Cl)cc2)sc1-c1ccc(Cl)cc1"
result = "6.66 ± 0.057%"

[[record]]
mol = "CCCCCCc1cc(-c2ccc(F)c(Cl)c2)sc1-c1ccc(F)c(Cl)c1"
result = "15.57 ± 0.034%"

[[record]]
mol = "CCCCCCc1cc(-c2cc(C)cc(C)c2)sc1-c1cc(C)cc(C)c1"
result = "4.54 ± 0.014%"


###

# inhibition at 50 µM listing for each entry below
- System: Escherichia coli
- protocolNotes: Biofilm inhibition assay
- Type: cell-based
- statedConditions: E. coli, 50 μM/mL, 24 h at 37 °C
measuredEndpoint: inhibition at 50 µM (%)

[[record]]
mol = "CCCCCCc1cc(-c2cc(C)cc(C)c2)sc1-c1cc(C)cc(C)c1"
targetundertest = "Escherichia coli"
measuredendpoint = "inhibition at 50 µM"
numericreadout = 59.5

[[record]]
mol = "CCCCCCc1cc(-c2ccc(I)cc2)sc1-c1ccc(I)cc1"
targetundertest = "Escherichia coli"
measuredendpoint = "inhibition at 50 µM"
numericreadout = 73.8

[[record]]
mol = "CCCCCCc1cc(-c2ccc(SC)cc2)sc1-c1ccc(SC)cc1"
targetundertest = "Escherichia coli"
measuredendpoint = "inhibition at 50 µM"
numericreadout = 27.1

[[record]]
mol = "CCCCCCc1cc(-c2ccc(C)cc2)sc1-c1ccc(C)cc1"
targetundertest = "Escherichia coli"
measuredendpoint = "inhibition at 50 µM"
numericreadout = 62.5

[[record]]
mol = "CCCCCCc1cc(-c2cc(F)cc(F)c2)sc1-c1cc(F)cc(F)c1"
targetundertest = "Escherichia coli"
measuredendpoint = "inhibition at 50 µM"
numericreadout = 69.7

[[record]]
mol = "CCCCCCc1cc(-c2cccc(C(C)=O)c2)sc1-c1cccc(C(C)=O)c1"
targetundertest = "Escherichia coli"
measuredendpoint = "inhibition at 50 µM"
numericreadout = 76.9

[[record]]
mol = "CCCCCCc1cc(-c2ccc(Cl)cc2)sc1-c1ccc(Cl)cc1"
targetundertest = "Escherichia coli"
measuredendpoint = "inhibition at 50 µM"
numericreadout = 78.8

[[record]]
mol = "CCCCCCc1cc(-c2ccc(F)c(Cl)c2)sc1-c1ccc(F)c(Cl)c1"
targetundertest = "Escherichia coli"
measuredendpoint = "inhibition at 50 µM"
numericreadout = 75.5

[[record]]
mol = "CCCCCCc1cc(-c2ccc(OC)cc2)sc1-c1ccc(OC)cc1"
targetundertest = "Escherichia coli"
measuredendpoint = "inhibition at 50 µM"
numericreadout = 73.3


###

- System: 4T1 cells
- protocolNotes: MTT assay, anti-tumor activity against 4T1 cells
- Assay type: cell-based
- statedConditions: 4T1, 72 h, 72 h treatment
- Procedure: Metastasis is the major reason of morbidity and mortality in cancer disease. In breast cancer patients, several tissues involving liver, lung, bone, and lymph node are affected by tumor involvement. […] In brief, 0.8 × 10^5 cells/mL were seeded in 96-well plates and were incubated in a humidified CO2 incubator overnight. […] The absorbance plates were then read using a spectrophotometer (BioTek) at 570 nm.
measuredEndpoint: IC50 (µM)

[[record]]
compound = "CCCCCCc1cc(-c2ccc(I)cc2)sc1-c1ccc(I)cc1 [Compound 3e, 3-Hexyl-2,5-bis(4-iodophenyl)thiophene]"
targetundertest = "4T1 cells"
numericreadout = 21.5

[[record]]
compound = "CCCCCCc1cc(-c2cc(F)cc(F)c2)sc1-c1cc(F)cc(F)c1 [Compound 3f]"
targetundertest = "4T1 cells"
numericreadout = 31.5

[[record]]
compound = "CCCCCCc1cc(-c2ccc(OC)cc2)sc1-c1ccc(OC)cc1 [Compound 3c]"
targetundertest = "4T1 cells"
numericreadout = 29.5

[[record]]
compound = "CCCCCCc1cc(-c2ccc(SC)cc2)sc1-c1ccc(SC)cc1 [Compound 3h]"
targetundertest = "4T1 cells"
numericreadout = 16

[[record]]
compound = "CCCCCCc1cc(-c2cccc(C(C)=O)c2)sc1-c1cccc(C(C)=O)c1 [Compound 3i, 2,5-Bis(3-acetylphenyl)-3-hexylthiophene]"
targetundertest = "4T1 cells"
numericreadout = 23.2

[[record]]
compound = "CCCCCCc1cc(-c2ccc(C)cc2)sc1-c1ccc(C)cc1 [Compound 3a, 2,5-Bis(4-methylphenyl)-3-hexylthiophene]"
targetundertest = "4T1 cells"
numericreadout = 30.5

[[record]]
compound = "CCCCCCc1cc(-c2ccc(F)c(Cl)c2)sc1-c1ccc(F)c(Cl)c1 [Compound 3g]"
targetundertest = "4T1 cells"
numericreadout = 22

[[record]]
compound = "CCCCCCc1cc(-c2cc(C)cc(C)c2)sc1-c1cc(C)cc(C)c1 [Compound 3b]"
targetundertest = "4T1 cells"
numericreadout = 30

[[record]]
compound = "CCCCCCc1cc(-c2ccc(Cl)cc2)sc1-c1ccc(Cl)cc1 [Compound 3d, 2,5-Bis(4-chlorophenyl)-3-hexylthiophene]"
targetundertest = "4T1 cells"
numericreadout = 22.8

